Recorded inhibition by entry
assay target: Cyclin-dependent kinase 5 (Homo sapiens) (UniProt Q00535);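 also: mean value of inhibition, with the enzyme tested as CDK5/p35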
Sequence (Q00535 whole entry, looked up): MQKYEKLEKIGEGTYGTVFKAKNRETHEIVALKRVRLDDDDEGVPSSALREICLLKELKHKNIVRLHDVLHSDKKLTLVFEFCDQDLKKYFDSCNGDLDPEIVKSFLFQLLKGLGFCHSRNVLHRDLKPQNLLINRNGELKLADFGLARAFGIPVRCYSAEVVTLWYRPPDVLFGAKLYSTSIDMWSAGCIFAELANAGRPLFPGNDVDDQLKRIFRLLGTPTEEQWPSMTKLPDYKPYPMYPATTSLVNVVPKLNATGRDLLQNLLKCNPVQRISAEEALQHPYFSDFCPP
conditions used: at 1 µM
endpoint: inhibition (%)

| query smiles | endpoint | numeric readout |
| --- | --- | --- |
| COC(=O)c1ccc2c(c1)C(=Cc1cc(Br)c(O)c(Br)c1)C(=O)N2 | inhibition | 2.5 |
| Cc1ccc(O)cc1Nc1ccnc2ccc(S(C)(=O)=O)cc12 | inhibition | 2.61 |
| COc1cc(Nc2nccc(-c3cnn4ncccc34)n2)cc(OC)c1 | inhibition | 90.1 |
| COC(=O)c1cncc(/C=C/c2c(C)cc(O)cc2C)c1 | inhibition | 3.28 |
| c1ccc(Cc2nc3ccc(Nc4ncnc5ccccc45)cc3[nH]2)cc1 | inhibition | 5.74 |
| Cc1cc(O)cc(C)c1/C=C/c1cncc(C(=O)N(C)C)c1 | inhibition | 4.55 |

====

assay target: Aurora kinase B (Homo sapiens);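 also: reported percent inhibition is a mean value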
conditions used: at 1 µM
Assign Met whenever inhibition does not fall below 40%; assign Not met whenever it does.

| query smiles | assigned label |
| --- | --- |
| NS(=O)(=O)c1ccc(NC=C2C(=O)Nc3ccc4ncsc4c32)cc1 | Met |
| COc1cc2ncn(-c3cc(OCc4ccccc4S(C)(=O)=O)c(C#N)s3)c2cc1OC | Met |
| NC(=O)c1cccc(Nc2nccc(Nc3cccc(F)c3)n2)c1 | Met |
| NS(=O)(=O)c1ccc(-c2cc3ccncc3cc2OCc2ccccc2)cc1 | Not met |
| ON=C1CCc2cc(-c3nc(C4CCNCC4)[nH]c3-c3ccncc3)ccc21 | Not met |
| COc1cccc(-n2ncc3c(N/N=C/c4ccc(S(C)(=O)=O)cc4)ncnc32)c1 | Met |
| c1ccc(Cc2nc3ccc(Nc4ncnc5ccccc45)cc3[nH]2)cc1 | Not met |
| c1ccc(Nc2ncc(-c3ccccc3)o2)cc1 | Not met |
| Cc1cc(-c2ccccn2)cc(C)c1/C=C/c1cncc(-c2nn[nH]n2)c1 | Not met |
| Nc1nccc(-c2c(-c3ccc(F)cc3)ncn2CCCN2CCOCC2)n1 | Not met |
| CN1CCN(C(=O)c2ccc(NC(=O)Nc3ccc(N(C)c4ccnc(Nc5ccc(CS(C)(=O)=O)cc5)n4)cc3)cc2)CC1 | Met |
| Cc1ccc2c(-c3ccnc(Nc4ccc5c(c4)OCCO5)n3)c(-c3ccc(C(F)(F)F)cc3)nn2n1 | Not met |
| Oc1cccc(-c2nc(-c3ccccc3)[nH]c2-c2ccncc2)c1 | Not met |
| N#Cc1cccc(Nc2nccc(-c3cnn4ncccc34)n2)c1 | Met |
| COC(=O)c1ccc2c(c1)C(=Cc1cc(Br)c(O)c(Br)c1)C(=O)N2 | Not met |

====

assay target: Tyrosine-protein kinase JAK2 (Homo sapiens) (UniProt O60674);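 also: mean JAK2 inhibition from the GSK PKIS screen, compounds tested at 1 µM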
Sequence (O60674 whole entry): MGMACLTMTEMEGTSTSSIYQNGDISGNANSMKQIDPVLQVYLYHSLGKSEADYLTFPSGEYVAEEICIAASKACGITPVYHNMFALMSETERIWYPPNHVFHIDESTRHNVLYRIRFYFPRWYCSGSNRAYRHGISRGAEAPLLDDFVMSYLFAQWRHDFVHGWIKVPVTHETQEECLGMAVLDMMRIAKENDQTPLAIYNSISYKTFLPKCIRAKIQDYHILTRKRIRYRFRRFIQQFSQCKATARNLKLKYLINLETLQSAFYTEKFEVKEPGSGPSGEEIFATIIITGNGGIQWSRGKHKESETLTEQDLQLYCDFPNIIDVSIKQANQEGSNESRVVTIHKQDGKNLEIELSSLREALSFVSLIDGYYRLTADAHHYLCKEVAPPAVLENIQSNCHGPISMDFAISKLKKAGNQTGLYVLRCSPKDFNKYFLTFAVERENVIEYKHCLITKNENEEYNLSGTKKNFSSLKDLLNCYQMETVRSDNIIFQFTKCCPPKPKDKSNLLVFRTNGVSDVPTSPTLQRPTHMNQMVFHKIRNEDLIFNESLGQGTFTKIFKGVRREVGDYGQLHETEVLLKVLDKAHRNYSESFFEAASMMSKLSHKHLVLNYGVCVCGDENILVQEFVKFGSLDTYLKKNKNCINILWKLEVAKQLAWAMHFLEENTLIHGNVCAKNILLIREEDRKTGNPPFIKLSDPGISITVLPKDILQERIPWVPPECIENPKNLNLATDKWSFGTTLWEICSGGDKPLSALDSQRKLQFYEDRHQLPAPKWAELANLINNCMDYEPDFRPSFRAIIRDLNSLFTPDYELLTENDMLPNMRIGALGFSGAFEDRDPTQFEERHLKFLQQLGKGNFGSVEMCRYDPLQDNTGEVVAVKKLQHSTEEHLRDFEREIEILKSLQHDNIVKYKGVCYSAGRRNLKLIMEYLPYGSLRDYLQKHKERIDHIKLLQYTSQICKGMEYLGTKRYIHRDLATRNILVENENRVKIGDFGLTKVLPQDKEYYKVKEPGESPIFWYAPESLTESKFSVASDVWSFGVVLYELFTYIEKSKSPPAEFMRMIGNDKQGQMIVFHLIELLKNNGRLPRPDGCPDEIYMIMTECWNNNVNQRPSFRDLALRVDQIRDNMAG
conditions used: at 1 µM
endpoint: inhibition (%)

| query smiles | numeric readout |
| --- | --- |
| Cc1nc(-c2ccccc2)n2nc(NCCCN3CCOCC3)ncc12 | 1.89 |
| O=C1Nc2ccc(-c3cccnc3)cc2C1=Cc1cc(Br)c(O)c(Br)c1 | 3.68 |
| COc1ccc(-c2nn3ncccc3c2-c2ccnc(Nc3cccc(C(F)(F)F)c3)n2)cc1 | 0.47 |
| FC(F)(F)c1ccc(-c2nn3ncccc3c2-c2ccnc(Nc3ccc4c(c3)OCCO4)n2)cc1 | -0.89 |
| COc1cccc(-n2ncc3c(N/N=C/c4ccc(C)cc4)ncnc32)c1 | 1.98 |
| N#Cc1c(NC(=O)c2ccccc2F)sc2c1CCCC2 | -1.01 |
| COc1cc(Nc2nccc(-c3cnn4ncccc34)n2)cc(OC)c1 | 36.4 |
| NC(=O)c1sc(-n2cnc3ccccc32)cc1OCc1ccccc1Br | 2.84 |
| Oc1cccc(-c2nc(-c3ccccc3)[nH]c2-c2ccncc2)c1 | 2.51 |
| Cc1ccc2c(-c3ccnc(Nc4cccc(C(F)(F)F)c4)n3)c(-c3ccccc3)nn2n1 | 2.03 |
| CN(C)C(=O)O[C@H]1CN[C@H](C#Cc2cc3ncnc(Nc4ccc(OCc5cccc(F)c5)c(Cl)c4)c3s2)C1 | 1.89 |
| NS(=O)(=O)c1cccc(Nc2cc(-c3ccc(F)cc3)n[nH]2)c1 | 1.81 |
| COc1cc2ncn(-c3cc(OCc4ccccc4S(C)(=O)=O)c(C#N)s3)c2cc1OC | 29.4 |
| CN(c1ccc(NC(=O)Nc2ccc(OC(F)(F)F)cc2)cc1)c1ccnc(Nc2cccc(S(N)(=O)=O)c2)n1 | 1.31 |
| Cc1cc(O)cc(C)c1/C=C/c1cncc(C(=O)N(C)C)c1 | 3.22 |
| CCn1c(-c2nonc2N)nc2c(C#CC(C)(C)O)nc(OCCNC)cc21 | 3.3 |
| OCc1ccc(-c2nc(-c3ccccn3)c(-c3ccc4c(c3)OCO4)[nH]2)cc1 | 3.4 |
| CC(C)c1ccc(Nc2nccc(-c3cnn4ncccc34)n2)cc1 | 8.72 |
| Cc1ccc(NC(=O)CC2CC2)cc1-c1ccc(C(=O)NCC2CC2)cc1 | 5.47 |
| NS(=O)(=O)c1ccc(-c2cc3ccncc3cc2OCc2ccccc2)cc1 | 3.23 |
